assay: Drug level in C57Bl/6 mouse serum at 10 mg/kg, ip after 4 hrs by LC-MS/MS analysis; assay type: ADME, organism-based; parameters: dose 10 mg/kg, route intraperitoneal; conditions: read-out: Drug uptake
QUANTITY NAME: concentration at 4 h (µM)
Please reply with the bare figure in µM and do not write the unit itself.

Problem: I would be grateful if you could share the reported concentration at 4 h for N=C(CCl)NCCC[C@@H](NC(=O)c1ccccc1)C(N)=O .
Result: 0.01

---

assay: Drug level in C57Bl/6 mouse serum at 2.5 mg/kg, iv after 2 hrs by LC-MS/MS analysis; assay type: ADME, organism-based; set-up: dose 2.5 mg/kg, route intravenous; settings: read-out: Drug uptake
QUANTITY NAME: concentration at 2 h (nM)
Write the answer as a number in nM, unit excluded.

Problem: Which concentration at 2 h is listed for N=C(CCl)NCCC[C@@H](NC(=O)c1ccccc1)C(N)=O ?
Result: 21
